- Tested on: RXF 393 renal
- test summary: NCI tumour cell line growth inhibition, 48 h
Everything with TGI lower than 90 µM is Not met; everything else, including exactly 90 µM, is Met.

Worked cases, answers included:
- compound: "CCO/N=C(/N)c1ncn(Cc2ccccc2)c1NCC(OCC)OCC"
  category label: "Met"
- compound: "Cc1[nH]n(C2=NCCN2)c(=O)c1Cc1ccccc1"
  category label: "Met"
- compound: "O=C1C(Cl)C(c2cccc(Cl)c2)N1c1ccc(-n2c(=S)[nH]c3ccccc3c2=O)cc1 (configuration not stated)"
  category label: "Not met"

Prompt: Threshold query (TGI >= 90 µM) on Cc1ccc(NC(=O)c2cccc(OP(=O)(O)Nc3ccc(C)cc3)c2)cc1
Response: Met

Prompt: Threshold query (TGI >= 90 µM) on COC1=CC2(C=CC1=O)c1cc(OC)c(OC)cc1CCN2C(=O)c1ccccc1 (configuration not stated)
Response: Met

Prompt: Threshold query (TGI >= 90 µM) on COC(=O)CCc1cc(O)c2c(c1)C(C(=O)OC)C(c1ccc(O)c(O)c1)O2 (configuration not stated)
Response: Met

Prompt: Threshold query (TGI >= 90 µM) on COC(=O)C(=O)C(C(=O)C=C(C)C)C(=O)C(=O)Nc1ccc(C)cc1C (configuration not stated)
Response: Met

Prompt: Threshold query (TGI >= 90 µM) on O=C(O)[C@@H]1CSCN1C(=O)[C@@H]1CCC(=S)N1
Response: Met

Prompt: Threshold query (TGI >= 90 µM) on CCNc1cc2c(cc1O)CC[C@@H]1[C@@H]2CC[C@]2(C)[C@@H](O)CC[C@@H]12
Response: Not met

Prompt: Threshold query (TGI >= 90 µM) on Nc1ncn(C2CC(O)C(CO)O2)c(=O)n1 (configuration not stated)
Response: Met

Prompt: Threshold query (TGI >= 90 µM) on COc1ccc(C2=Nn3c(nnc(Cc4ccc(Cl)cc4)c3=O)SC2)cc1
Response: Met

Prompt: Threshold query (TGI >= 90 µM) on CC(=O)O.[Au].c1ccc([PH+](c2ccccc2)c2ccccc2)cc1
Response: Not met

Prompt: Threshold query (TGI >= 90 µM) on c1cc2c(ncc3cscc32)s1
Response: Met

Prompt: Threshold query (TGI >= 90 µM) on COC(=O)C(NC(=O)c1ccccc1)c1ccco1 (configuration not stated)
Response: Met
